target: hGLP-1R (Homo sapiens, UniProt P43220); assay: cell-based or functional assay
Sequence (P43220 24-463): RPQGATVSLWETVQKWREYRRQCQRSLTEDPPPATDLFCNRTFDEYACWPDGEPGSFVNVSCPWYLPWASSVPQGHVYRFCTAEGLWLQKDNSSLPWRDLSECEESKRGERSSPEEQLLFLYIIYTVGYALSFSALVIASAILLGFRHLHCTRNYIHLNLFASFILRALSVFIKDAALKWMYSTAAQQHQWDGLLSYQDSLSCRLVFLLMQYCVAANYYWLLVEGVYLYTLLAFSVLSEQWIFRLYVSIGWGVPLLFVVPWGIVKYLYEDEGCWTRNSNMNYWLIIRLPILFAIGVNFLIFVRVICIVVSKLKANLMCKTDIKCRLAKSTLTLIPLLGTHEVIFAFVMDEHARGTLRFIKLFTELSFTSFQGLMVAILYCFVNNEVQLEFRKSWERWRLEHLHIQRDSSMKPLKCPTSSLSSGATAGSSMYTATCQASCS
Attribute: cAMP Rel EC50, nM (1% HSA)
All answers are understood in nM, so give the number only.

Sample YXQGTXTSDYSILLDKKAQXAFIEXLEEGGPSSGAPPPSEG (synthetic construct; SITE 2: note = 2-Aminoisobutyric Acid; SITE 6: note = alpha-methyl-2-fluoro-L-phenylalanine; SITE 17: note = Lysine is chemically modified through conjugation of the epsilon-amino group of the Lysine side chain with (2-[2-(2-Amino-ethoxy)-ethoxy]-acetyl)-(gamma-Glu)-CO-(CH2) 16-) [Example 411] ; cAMP Rel EC50, nM (1% HSA) observed: 82.1

cAMP Rel EC50, nM (1% HSA) reported for this binder YXQGTFTSDXSXXLDXKAQXAFIEYLIAGGPSSGEPPPSGE (Lys acylated (γ-Glu)2-C18 diacid; non-natural residues; C-terminal amide; synthetic construct; SITE 2: note = 2-Aminoisobutyric Acid; SITE 10: note = 3-(4-Pyridyl)-L-alanine; SITE 12: note = L-ornithine; SITE 13: note = alpha-methyl-leucine; SITE 16: note = L-ornithine; SITE 17: note = Lysine is chemically modified through conjugation of the epsilon-amino group of the Lys) [Example 983] : 207

The binder listed as YXQGTXTSDXXIXLDXKYQXEFIEXLVEGGPSSGAPPPSGS (synthetic construct; SITE 2: note = 2-Aminoisobutyric Acid; SITE 6: note = alpha-methyl-2-fluoro-L-phenylalanine; SITE 10: note = 3-(4-Pyridyl)-L-alanine; SITE 11: note = alpha-methyl-L-serine; SITE 13: note = alpha-methyl-leucine; SITE 16: note = L-ornithine; SITE 17: note = Lysine is chemically mo) [Example 767] has a reported cAMP Rel EC50, nM (1% HSA) of 56.8

cAMP Rel EC50, nM (1% HSA) in this record for YXQGTFTSDXSXXLDXKAQXAFIEYLIAGGPSSGAPPPSESE (Aib, 4Pal, Orn, αMeL, Me4Pal; K (γGlu)2-C18 diacid; amide; synthetic construct; SITE 2: note = 2-Aminoisobutyric Acid; SITE 10: note = 3-(4-Pyridyl)-L-alanine; SITE 12: note = L-ornithine; SITE 13: note = alpha-methyl-leucine; SITE 16: note = L-ornithine; SITE 17: note = Lysine is chemically modified through conjugation of the epsilon-amino group of the Lys) [Example 1012] : 223

Given item YXQGTXTSDYSILLDKKAQXAFIEFLEEGGPSSGAPPPSEG (not fully specified; synthetic construct; SITE 2: note = 2-Aminoisobutyric Acid; SITE 6: note = alpha-methyl-2-fluoro-L-phenylalanine; SITE 17: note = Lysine is chemically modified through conjugation of the epsilon-amino group of the Lysine side chain with (2-[2-(2-Amino-ethoxy)-ethoxy]-acetyl)-(gamma-Glu)-CO-(CH2) 16-) [Example 412] , the value recorded as its cAMP Rel EC50, nM (1% HSA) is 46

cAMP Rel EC50, nM (1% HSA) measured on YXQGTFTSDFSXXLDKKAQXAFIEYLLEGGHSSGEPPPGGS (synthetic construct; SITE 2: note = 2-Aminoisobutyric Acid; SITE 12: note = L-ornithine; SITE 13: note = alpha-methyl-leucine; SITE 17: note = Lysine is chemically modified through conjugation of the epsilon-amino group of the Lysine side chain with (2-[2-(2-Amino-ethoxy)-ethoxy]-acetyl)-(gamma-Glu)) [Example 164] = 962
